Values compiled from PubChem BioAssay AID2060884.

- System: NCI-H929 complex spheroids, viability % test/control
- Assay remarks: Anticancer human tumor NCI-H929 cell line growth inhibition [RAS];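 further: compound exposure lasted seven days before viability was read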
- Experimental conditions: curve of first compound; second compound 0.01 µM
Measurement label: pIC50
The value called pIC50 is obtained by taking minus log10 of the concentration in mol/L.

Here's what some known entries look like.
Compound	Measurement label	Value
CC(C)n1nc(-c2ccc3oc(N)nc3c2)c2c(N)ncnc21 + C=CC(=O)N1CCN(c2nc(OCC3CCCN3C)nc3c(F)c(-c4nc(N)cc(C)c4C(F)(F)F)c(Cl)cc23)C(C)C1	pIC50	7.19
Nc1ccn(C2OC(CO)C(O)C2(F)F)c(=O)n1 (stereo not given) + C=CC(=O)N1CCN(c2nc(OCC3CCCN3C)nc3c(F)c(-c4nc(N)cc(C)c4C(F)(F)F)c(Cl)cc23)C(C)C1	pIC50	7.74

We now examine a further compound.
Incoming: Consider the compound CCC(CC)c1cc(NC2CCC(N)C2)n2nccc2n1 (stereo not given) + C=CC(=O)N1CCN(c2nc(OCC3CCCN3C)nc3c(F)c(-c4nc(N)cc(C)c4C(F)(F)F)c(Cl)cc23)C(C)C1 and give its measured pIC50.
Outgoing: 5.75
